All figures here come from patent US20230265187A1.

# targetSystem: T1, His-tagged cynomolgus monkey TIGIT (Acro Biosystems #TIT-05223) (cynomolgus monkey, UniProt A0A7N9I9V4 89-209)
# T1 construct: Bought protein; also called cyno TIGIT; cynomolgus TIGIT; not shown: His tag
# T1 sequence (A0A7N9I9V4 entry or part of it): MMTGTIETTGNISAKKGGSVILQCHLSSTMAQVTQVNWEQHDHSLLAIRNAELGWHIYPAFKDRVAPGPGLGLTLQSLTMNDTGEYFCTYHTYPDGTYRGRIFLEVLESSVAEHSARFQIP
# protocolSummary: ELISA, coated His-TIGIT, 1 ug/ml
reportedMetric: Elisa OD450 (OD450)

# binder, reportedMetric, endpointValue
rows = [
    ("43586p1.2.E6 (scFv, V domains shown) VH: EVQLLESGGGLVQPGGSLRLSCAASGFTVSDHYMSWVRQAPGKGLEWVSTTSSTSWKNYTYYADSVKGRFSISRDNSENTLYLQMNGLRAEDTAVYYCAKGSYGMDVWGQGTTVTVSS VL: QSVLTQPPSASGTPGQRVTISCSGSNFNIGTKYLYWYQQLPGTAPKLLIYLDSQRPSGVPDRFSTSKSGTSASLAISGLQSEDEADYYCALWDDHLHGWVFGGGTKLTVL", "Elisa OD450", 0.776),
    ("43586p1.2.B2 (scFv, V domains shown) VH: EMQLLESGGGLVQPGGSLRLSCAASGFTFDDYVMSWVRQAPGKGLEWVSLINWNGDKTYYADSVKGRFTISRDNSKNTLYLQMNSLRAEDTAIYYCAKHWIVFQYGMDVWGQGTTVTVSS VL: QSVLTQPPSASGTPGQRVTISCSGSISNIETKYVSWYQQLPGTAPKLLIYNSDQRPSGVPDRFSGSKSGTSASLAISGLQSEDEADYYCVSWDASLKSWVFGGGTKLTVL", "Elisa OD450", 1.57),
    ("43352p1.H8 (scFv, V domains shown) VH: DVQLVESGGGVVRPGESLRLSCAASGFNFSTYAMNWVRQAPGEGLEWVSGISGRSSGDTTYYADSVRGWFTVSRDNSKNTLYLQMSSLRAEDTAVYYCARETWIRGYFDYWGLGTLVTVSS VL: QSVLTQPPSASGTPGQRVTISCSGSRSNLGNNLVYWYQQLPGTAPKLLIYFNNERPSGVPDRFSGSKSGTSASLAISGVQSEDEADYYCATWDDSLNGWVFGGGTKLTVL", "Elisa OD450", 0.363),
]
